Values compiled from paper PMC8839210.

This section presents molecules with their documented remaining activity at 100 µM values.
molecular target: URAT1 (Homo sapiens); construct: The complete human URAT1 cDNA in pEGFP-C1; expressed in transfected cells; host or cells: 293A cells (human embryonic kidney 293-derived), transient transfection with PEI-MAX; test: Urate transport assay using URAT1-expressing 293A cells; format: cell-based; settings: 293A, 20 s, authentic chemical 100 μM; mean ± S.D., n = 3; read-out: URAT1-mediated urate transport activity, % of the control
Sequence (Q96S37 whole entry): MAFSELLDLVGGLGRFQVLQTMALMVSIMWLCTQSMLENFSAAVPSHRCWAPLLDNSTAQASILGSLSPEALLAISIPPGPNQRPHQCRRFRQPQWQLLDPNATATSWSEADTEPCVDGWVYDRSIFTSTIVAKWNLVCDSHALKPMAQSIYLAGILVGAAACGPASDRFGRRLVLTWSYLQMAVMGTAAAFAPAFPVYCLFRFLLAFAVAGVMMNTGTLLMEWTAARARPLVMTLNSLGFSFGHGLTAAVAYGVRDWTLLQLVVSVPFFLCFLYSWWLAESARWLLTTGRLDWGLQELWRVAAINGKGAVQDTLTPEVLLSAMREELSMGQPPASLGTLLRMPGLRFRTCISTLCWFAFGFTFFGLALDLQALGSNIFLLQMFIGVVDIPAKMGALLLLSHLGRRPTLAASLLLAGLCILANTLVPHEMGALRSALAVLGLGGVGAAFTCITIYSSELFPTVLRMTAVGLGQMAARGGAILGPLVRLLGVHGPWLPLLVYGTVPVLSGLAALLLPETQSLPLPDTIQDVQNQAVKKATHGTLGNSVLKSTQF

| molecule | remaining activity at 100 µM |
| --- | --- |
| O=c1c(O)c(-c2cc(O)c(O)c(O)c2)oc2cc(O)cc(O)c12 | < 50% |
| O=c1c(-c2ccc(O)cc2)coc2cc(O)cc(O)c12 | < 50% |
| O=c1c(O)c(-c2ccc(O)c(O)c2)oc2cc(O)ccc12 | < 50% |
